B1: Kinesin-like protein KIF16B, residues 1213 to 1273; numbered along this chain, Q96L93 (parent)
chain: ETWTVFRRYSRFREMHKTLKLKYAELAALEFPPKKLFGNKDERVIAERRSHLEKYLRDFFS

# Variants of: B1
# procedureDetails: abundance fitness (aPCA) (normalised: wild type 0, dead -1); higher = more abundant; growth selection in yeast, the domain comes from the species named
# experimentalSetup: Homo sapiens
Threshold rule: abundance fitness greater than or equal to -0.3 is criterion met; below that, criterion not met.

recordSequence	groupLabel
ETWTVFRRYSRFVEMHKTLKLKYAELAALEFPPKKLFGNKDERVIAERRSHLEKYLRDFFS [R13V]	criterion not met
ETWTVFRRYSRFREMHKTLKLKYAELAALEFPPKKLFGNKDERVIAERRSHLEKYLRNFFS [D58N]	criterion met
ETWTVFRRYSRFREMHKTLKLKYAELAALEFPPKKSFGNKDERVIAERRSHLEKYLRDFFS [L36S]	criterion not met
ETWTVFRRYSRFREMHKTLKLKYAELAALEFPPKKLFGSKDERVIAERRSHLEKYLRDFFS [N39S]	criterion met
ETWTVFRRYSRFREMHKTLKLKYAELAALEFPPKKLFGNKDERVIAERRSHLEIYLRDFFS [K54I]	criterion not met
ETWTVFRRYSTFREMHKTLKLKYAELAALEFPPKKLFGNKDERVIAERRSHLEKYLRDFFS [R11T]	criterion met
ETWTVFRRYSEFREMHKTLKLKYAELAALEFPPKKLFGNKDERVIAERRSHLEKYLRDFFS [R11E]	criterion not met
ETWTVFRRYSRFREMHKTLKLKYAELAALEFPPKELFGNKDERVIAERRSHLEKYLRDFFS [K35E]	criterion not met
ETWTVFRRYSRFREMHKTMKLKYAELAALEFPPKKLFGNKDERVIAERRSHLEKYLRDFFS [L19M]	criterion met
ETWTVFRRYSRFREMHKTLKLKYAELAALLFPPKKLFGNKDERVIAERRSHLEKYLRDFFS [E30L]	criterion met
ETLTVFRRYSRFREMHKTLKLKYAELAALEFPPKKLFGNKDERVIAERRSHLEKYLRDFFS [W3L]	criterion not met
ETWTVFRRYSRFREMHKTLKLKYAELAALEFPPKKLFGNKDERVIAERRSHLEKYLRDFFM [S61M]	criterion met
ETWTVFRRYSRFREMHKTLKLKYAELAALEFPPKKLFGNKDERVIAERRSELEKYLRDFFS [H51E]	criterion not met
ETWTVFRRYRRFREMHKTLKLKYAELAALEFPPKKLFGNKDERVIAERRSHLEKYLRDFFS [S10R]	criterion not met
ETMTVFRRYSRFREMHKTLKLKYAELAALEFPPKKLFGNKDERVIAERRSHLEKYLRDFFS [W3M]	criterion met
ETWTVFRRYSRFREMHKTLKLKYAELAALEFPPKKLFGNKDERVIAERRSHLEKYLRDFLS [F60L]	criterion met
ETWTVFRRYSRFREMHCTLKLKYAELAALEFPPKKLFGNKDERVIAERRSHLEKYLRDFFS [K17C]	criterion not met
ETWTVFRRYSRFREMHKTLKLKYAELWALEFPPKKLFGNKDERVIAERRSHLEKYLRDFFS [A27W]	criterion not met
ETWTVFRRYSRFREMHKTLKLKYAEPAALEFPPKKLFGNKDERVIAERRSHLEKYLRDFFS [L26P]	criterion not met
ETWTVFRRYSRFREMHWTLKLKYAELAALEFPPKKLFGNKDERVIAERRSHLEKYLRDFFS [K17W]	criterion not met
ETWTVFRRYSRFREMHKTLKLKYAELAALEFPAKKLFGNKDERVIAERRSHLEKYLRDFFS [P33A]	criterion met
